- test.system: T1, ADF peptide complexed with HLA-A*02:01 on T2 cells (human)
- T1 construct: whole, on cells
- assay.text: flow cytometry, peptide-loaded T2 cells;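 further: binding of single-chain Fv antibody constructs, raised in XenoMouse, to peptide-pulsed T2 cells measured by flow cytometry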
measurement.label: Signal/background
The response must contain the number and no unit.

Record excerpt, results attached:
1. 18179-D7 (scFv, scFv in bacterial lysate, detected with anti-Flag M2) scFv: EVQLLESGGGLVQPGGSLRLSCAASGFTFSNAWMSWVRQAPGKGLEWVGRIKGNTYGGTTDYAAPVKGRFTISRDDSKNTLFLQMNSLKTEDTAVYYCTTPSYSGSYYNYFSVMDVWGQGTTVTVSSGGGGSGGGGSGGGGSELVMTQSPSSLSASVGDRVTITCRTSQSISSYLNWYQQKPGRAPKLLIFAASSLQGGVPSRFSGSGSGTDFTLTISSLQPEDFATYYCQQTYSMPFTFGPGTKVDIK	1
2. 18181-F1 (scFv, scFv in bacterial lysate, detected with anti-Flag M2) scFv: EVQLLESGGGLVKPGGSLRLSCAASGFTFSNAWMSWVRQAPGKGLEWVGRIKGNTYGGTTDYAAPVKGRFTISRDDSKNTLFLQMNSLKTEDTAVYYCTTPSYSGSYYNYFSVMDVWGQGTTVTVSSGGGGSGGGGSGGGGSELVMTQSPSSLSASVGDRVTITCRTSQSISSYLNWYQQKPGRAPKLLIFAASSLQGGVPSRFSGSGSGTDFTLTISSLQPEDFATYYCQQTYSSPFTFGPGTKLEIK	1.1

The binder listed as 18093-B11 (scFv, scFv in bacterial lysate, detected with anti-Flag M2) scFv: EVQLLESGGGLVKPGGSLRLSCAASGFTFSDYYMSWIRQAPGKGLEWVSYISKSGSTIYYADSVKGRFTISRDNAKNSLYLQMNSLRAEDTAVYYCATYNYGHFDYWGQGTLVTVSSGGGGSGGGGSGGGGSELVLTQPPSVSVAPGQTARITCGGNNIGSKSVHWYQQKPGQAPVLVVYDDSDRPSGIPERFSGSNSGNTATLTISRVEAGDEADYYCQVWDSSSDHHVVFGGGTKLTVL has a reported Signal/background of 1.1

Data credit: patent US20220017636A1
